The reported numbers originate from ChEMBL document CHEMBL3272355.

system: Staphylococcus aureus; test: Antibacterial activity against beta-lactamase producing benzylpenicillin-resistant Staphylococcus aureus Russell assessed as growth inhibition after 18 hrs by serial dilution method; assay type: functional
observable: MIC (µg/mL)
Could you give me the number in µg/mL? Just the number is fine.

// below: answered compounds
{"columns": ["compound", "study-system", "value-units", "MIC"],
 "data": [
  ["CCSCC(=O)N[C@@H]1C(=O)N2C(C(=O)O)=C(Cc3cccnc3)CS[C@H]12", "Staphylococcus aureus", "µg/mL", 1.25],
  ["O=C(Cc1cccs1)N[C@@H]1C(=O)N2C(C(=O)[O-])=C(C[n+]3ccccc3)CS[C@H]12", "Staphylococcus aureus", "µg/mL", 1.25],
  ["O=C(O)C1=C(Cc2ccccc2)CS[C@@H]2[C@H](NC(=O)C(F)(F)F)C(=O)N12", "Staphylococcus aureus", "µg/mL", 12.5],
  ["CC(=O)OCC1=C(C(=O)O)N2C(=O)[C@@H](NC(=O)Cc3cccs3)[C@H]2SC1", "Staphylococcus aureus", "µg/mL", 0.5],
  ["NC(CC(=O)N[C@@H]1C(=O)N2C(C(=O)O)=C(Cc3cccnc3)CS[C@H]12)C1CC=CCC1 (mixture of isomers)", "Staphylococcus aureus", "µg/mL", 1.25]
]}

For O=C(CSc1ccncc1)N[C@@H]1C(=O)N2C(C(=O)O)=C(Cc3cccnc3)CS[C@H]12 , what is its reported MIC? 1

For O=C(Cn1ncnn1)N[C@@H]1C(=O)N2C(C(=O)O)=C(Cc3ccccc3)CS[C@H]12 , what is its reported MIC? 1.25

For N[C@@H](C(=O)N[C@@H]1C(=O)N2C(C(=O)O)=C(Cc3ccccc3)CS[C@H]12)c1ccc(O)cc1 , what is its reported MIC? 1.25

For N[C@@H](C(=O)N[C@@H]1C(=O)N2C(C(=O)O)=C(Cc3cccnc3)CS[C@H]12)c1ccccc1 , what is its reported MIC? 2.5

For O=C(O)CSCC(=O)N[C@@H]1C(=O)N2C(C(=O)O)=C(Cc3ccccc3)CS[C@H]12 , what is its reported MIC? 25

###

Measured MIC of individual entries
test system: Klebsiella aerogenes; experiment: Antibacterial activity against Klebsiella aerogenes assessed as growth inhibition after 18 hrs by serial dilution method; assay type: functional

{"columns": ["mol-smiles", "MIC"],
 "data": [
  ["CC(=O)N[C@@H]1C(=O)N2C(C(=O)O)=C(Cc3ccccc3)CS[C@H]12", "> 500 µg/mL"],
  ["C[C@@H](N)C(=O)N[C@@H]1C(=O)N2C(C(=O)O)=C(Cc3ccccc3)CS[C@H]12", "> 100 µg/mL"],
  ["O=C(Cc1cccs1)N[C@@H]1C(=O)N2C(C(=O)O)=C(Cc3ccccc3)CS[C@H]12", "> 200 µg/mL"],
  ["N#CCC(=O)N[C@@H]1C(=O)N2C(C(=O)O)=C(Cc3ccccc3)CS[C@H]12", "> 500 µg/mL"],
  ["N[C@@H](C(=O)N[C@@H]1C(=O)N2C(C(=O)O)=C(Cc3ccccc3)CS[C@H]12)C1CC1", "> 250 µg/mL"]
]}

For O=C(CSc1ccncc1)N[C@@H]1C(=O)N2C(C(=O)O)=C(Cc3ccccc3)CS[C@H]12 , what is its reported MIC? > 500 µg/mL

For O=C(O)C1=C(Cc2ccccc2)CS[C@@H]2[C@H](NC(=O)C(F)(F)F)C(=O)N12 , what is its reported MIC? > 500 µg/mL

###

Measured MIC of individual entries
tested on: Staphylococcus aureus; experiment: Antibacterial activity against beta-lactamase producing benzylpenicillin-resistant Staphylococcus aureus Russell assessed as growth inhibition after 18 hrs by serial dilution method; type: functional

// below: answered compounds
{"columns": ["compound", "recorded-measurement"],
 "data": [
  ["N#CCC(=O)N[C@@H]1C(=O)N2C(C(=O)O)=C(Cc3ccccc3)CS[C@H]12", "0.5 µg/mL"],
  ["O=C(O)C1=C(Cc2ccccc2)CS[C@@H]2[C@H](NC(=O)[C@H](O)c3ccccc3)C(=O)N12", "12.5 µg/mL"],
  ["N[C@@H](C(=O)N[C@@H]1C(=O)N2C(C(=O)O)=C(Cc3ccccc3)CS[C@H]12)C1CC1", "12.5 µg/mL"],
  ["CC(=O)N[C@@H]1C(=O)N2C(C(=O)O)=C(Cc3ccccc3)CS[C@H]12", "2.5 µg/mL"]
]}

For O=C(O)C1=C(Cc2ccccc2)CS[C@@H]2[C@H](NC(=O)C(C(=O)Oc3ccccc3)c3ccccc3)C(=O)N12 (some centres not stated) , what is its reported MIC? 25 µg/mL

For O=C(CSc1ccncc1)N[C@@H]1C(=O)N2C(C(=O)O)=C(Cc3ccccc3)CS[C@H]12 , what is its reported MIC? 2.5 µg/mL

For O=C(Cc1ccncc1)N[C@@H]1C(=O)N2C(C(=O)O)=C(Cc3cccnc3)CS[C@H]12 , what is its reported MIC? 25 µg/mL
